# Test system: Klebsiella oxytoca
# method: Antibiotic sensitivity (MIC) of Klebsiella oxytoca isolated from sputum, Example 2
# Assay type: cell-based
# applied-conditions: Klebsiella oxytoca isolate from experimental sputum sample
value-type: MIC

Example entries and their recorded answers appear below.
molecule: CO/N=C(\C(=O)N[C@@H]1C(=O)N2C(C(=O)O)=C(CSc3nc(=O)c(=O)[nH]n3C)CS[C@H]12)c1csc(N)n1 [Ceftriaxone]
MIC: ≤ 1 µg/mL
--
molecule: C[C@H]1COc2c(N3CCN(C)CC3)c(F)cc3c(=O)c(C(=O)O)cn1c23 [Levofloxacin]
MIC: ≤ 0.25 µg/mL
--
molecule: Cc1nnc(SCC2=C(C(=O)O)N3C(=O)[C@@H](NC(=O)Cn4cnnn4)[C@H]3SC2)s1 [Cefazolin]
MIC: 8 µg/mL
--
molecule: CO/N=C(\C(=O)N[C@@H]1C(=O)N2C(C(=O)O)=C(COC(C)=O)CS[C@H]12)c1csc(N)n1 [Cefotaxime]
MIC: ≤ 2 µg/mL

Data point: CC1(C)S[C@@H]2[C@H](NC(=O)[C@H](N)c3ccccc3)C(=O)N2[C@H]1C(=O)O [Ampicillin] ; MIC = > 16 µg/mL

The molecule listed as C[C@@H](O)[C@H]1C(=O)N2C(C(=O)O)=C(S[C@@H]3CN[C@H](C(=O)N(C)C)C3)[C@H](C)[C@H]12 [Meropenem] shows MIC equal to ≤ 1 µg/mL

MIC in this record for C[C@@H](O)[C@H]1C(=O)N2C(C(=O)O)=C(SCCN=CN)C[C@H]12 [Imipenem] : ≤ 0.5 µg/mL

====

# System: Staphylococcus aureus
# method: Antibiotic sensitivity (MIC) of original blood culture isolate, Example 3
# Format: cell-based
# applied-conditions: Rare Colonies Staphylococcus aureus
# Procedure: While not being bound to a specific theory, the native bone may sequester sessile infection in biofilms, especially in relatively devitalized bone associated with vasculopathy. Incubation in mucolytic allows for breakdown of the biofilm and the glycerol broth allows for a nutritive environment to coax these recalcitrant organisms into a cultivable state.
Each item that follows carries a reported MIC.
Give just the numeric value; µg/mL need not be written.

compound: CCCCCCCCCC(=O)N[C@@H](Cc1c[nH]c2ccccc12)C(=O)N[C@H](CC(N)=O)C(=O)N[C@@H](CC(=O)O)C(=O)N[C@@H]1C(=O)NCC(=O)N[C@@H](CCCN)C(=O)N[C@@H](CC(=O)O)C(=O)N[C@H](C)C(=O)N[C@@H](CC(=O)O)C(=O)NCC(=O)N[C@H](CO)C(=O)N[C@@H]([C@H](C)CC(=O)O)C(=O)N[C@@H](CC(=O)c2ccccc2N)C(=O)O[C@@H]1C [Daptomycin]
unit-string: µg/mL
data-value: 0.5

Shift focus to the following entry.
# MIC of CN[C@H](CC(C)C)C(=O)N[C@H]1C(=O)N[C@@H](CC(N)=O)C(=O)N[C@H]2C(=O)N[C@H]3C(=O)N[C@H](C(=O)N[C@H](C(=O)O)c4cc(O)cc(O)c4-c4cc3ccc4O)[C@H](O)c3ccc(c(Cl)c3)Oc3cc2cc(c3O[C@@H]2O[C@H](CO)[C@@H](O)[C@H](O)[C@H]2O[C@H]2C[C@](C)(N)[C@H](O)[C@H](C)O2)Oc2ccc(cc2Cl)[C@H]1O [Vancomycin] = 1

====

# Tested on: S. aureus
# method: Antibiotic sensitivity (MIC) of 5/14 sputum culture isolate, Example 4
# Assay type: cell-based, Staphylococcus aureus
# applied-conditions: 5/14 Sputum cx
value-type: MIC

The examples below pair each entry with its known result.
smiles-representation: Cc1nnc(SCC2=C(C(=O)O)N3C(=O)[C@@H](NC(=O)Cn4cnnn4)[C@H]3SC2)s1
MIC: 16 µg/mL
--
smiles-representation: CO[C@H]1/C=C/O[C@@]2(C)Oc3c(C)c(O)c4c(O)c(c(/C=N/N5CCN(C)CC5)c(O)c4c3C2=O)NC(=O)/C(C)=C\C=C\[C@H](C)[C@H](O)[C@@H](C)[C@@H](O)[C@@H](C)[C@H](OC(C)=O)[C@@H]1C
MIC: ≤ 1 µg/mL
--
smiles-representation: Cc1onc(-c2ccccc2)c1C(=O)N[C@@H]1C(=O)N2[C@@H]1SC(C)(C)[C@@H]2C(=O)O
MIC: > 2 µg/mL
--
smiles-representation: CN(C)[C@@H]1C(O)=C(C(N)=O)C(=O)[C@@]2(O)C(O)=C3C(=O)c4c(O)cccc4[C@@](C)(O)[C@H]3C[C@@H]12
MIC: ≤ 1 µg/mL
--
smiles-representation: CCC[C@@H]1C[C@@H](C(=O)N[C@@H]([C@H]2O[C@H](SC)[C@H](O)[C@@H](O)[C@H]2O)[C@H](C)Cl)N(C)C1
MIC: > 4 µg/mL
--
smiles-representation: CN[C@H](CC(C)C)C(=O)N[C@H]1C(=O)N[C@@H](CC(N)=O)C(=O)N[C@H]2C(=O)N[C@H]3C(=O)N[C@H](C(=O)N[C@H](C(=O)O)c4cc(O)cc(O)c4-c4cc3ccc4O)[C@H](O)c3ccc(c(Cl)c3)Oc3cc2cc(c3O[C@@H]2O[C@H](CO)[C@@H](O)[C@H](O)[C@H]2O[C@H]2C[C@](C)(N)[C@H](O)[C@H](C)O2)Oc2ccc(cc2Cl)[C@H]1O
MIC: 2 µg/mL

Read the next record carefully.
For reference, reported MIC for "CC(=O)NC[C@H]1CN(c2ccc(N3CCOCC3)c(F)c2)C(=O)O1" stands at 2 µg/mL

====

# Test system: Staphylococcus aureus
# method: Antibiotic sensitivity (MIC) of original blood culture isolate, Example 3
# Assay type: cell-based
# applied-conditions: Rare Colonies Staphylococcus aureus
value-type: MIC

Recorded results for 2 compounds are shown here.
compound: CC(=O)NC[C@H]1CN(c2ccc(N3CCOCC3)c(F)c2)C(=O)O1 [Linezolid]
MIC: 2 µg/mL

compound: Cc1onc(-c2ccccc2)c1C(=O)N[C@@H]1C(=O)N2[C@@H]1SC(C)(C)[C@@H]2C(=O)O [Oxacillin]
MIC: ≤ 0.25 µg/mL

Attention now shifts to the item below.
MIC reading for Cc1nnc(SCC2=C(C(=O)O)N3C(=O)[C@@H](NC(=O)Cn4cnnn4)[C@H]3SC2)s1 [Cefazolin] : ≤ 4 µg/mL

====

# Tested on: S. aureus
# method: Antibiotic sensitivity (MIC) of S. aureus grown from bone incubated in the transport system, Example 3
# Type: cell-based, Staphylococcus aureus
# applied-conditions: 05 S. aureus, bone incubated 24 hours at 37 degrees Celsius; unit assumed
Listed below: MIC values for each entry.

compound: CCC[C@@H]1C[C@@H](C(=O)N[C@@H]([C@H]2O[C@H](SC)[C@H](O)[C@@H](O)[C@H]2O)[C@H](C)Cl)N(C)C1 [Clindamycin]
MIC: ≤ 0.25 µg/mL

compound: CO[C@H]1/C=C/O[C@@]2(C)Oc3c(C)c(O)c4c(O)c(c(/C=N/N5CCN(C)CC5)c(O)c4c3C2=O)NC(=O)/C(C)=C\C=C\[C@H](C)[C@H](O)[C@@H](C)[C@@H](O)[C@@H](C)[C@H](OC(C)=O)[C@@H]1C [Rifampin]
MIC: ≤ 1 µg/mL

Let us move to another entry and its MIC.
The compound listed as Cc1onc(-c2ccccc2)c1C(=O)N[C@@H]1C(=O)N2[C@@H]1SC(C)(C)[C@@H]2C(=O)O [Oxacillin] shows MIC equal to ≤ 0.25 µg/mL

====

# System: MRSA
# method: Antibiotic sensitivity (MIC) of 5/5 sputum culture isolate, Example 4
# Assay type: cell-based, Staphylococcus aureus
# applied-conditions: 5/5 Sputum cx, Positive for MRSA
value-type: Interps

Reference set (6 entries):
smiles-representation: CCC[C@@H]1C[C@@H](C(=O)N[C@@H]([C@H]2O[C@H](SC)[C@H](O)[C@@H](O)[C@H]2O)[C@H](C)Cl)N(C)C1
Interps: R
--
smiles-representation: Cc1nnc(SCC2=C(C(=O)O)N3C(=O)[C@@H](NC(=O)Cn4cnnn4)[C@H]3SC2)s1
Interps: R
--
smiles-representation: CN[C@H](CC(C)C)C(=O)N[C@H]1C(=O)N[C@@H](CC(N)=O)C(=O)N[C@H]2C(=O)N[C@H]3C(=O)N[C@H](C(=O)N[C@H](C(=O)O)c4cc(O)cc(O)c4-c4cc3ccc4O)[C@H](O)c3ccc(c(Cl)c3)Oc3cc2cc(c3O[C@@H]2O[C@H](CO)[C@@H](O)[C@H](O)[C@H]2O[C@H]2C[C@](C)(N)[C@H](O)[C@H](C)O2)Oc2ccc(cc2Cl)[C@H]1O
Interps: S
--
smiles-representation: CN(C)[C@@H]1C(O)=C(C(N)=O)C(=O)[C@@]2(O)C(O)=C3C(=O)c4c(O)cccc4[C@@](C)(O)[C@H]3C[C@@H]12
Interps: S
--
smiles-representation: CC(=O)NC[C@H]1CN(c2ccc(N3CCOCC3)c(F)c2)C(=O)O1
Interps: S
--
smiles-representation: Cc1onc(-c2ccccc2)c1C(=O)N[C@@H]1C(=O)N2[C@@H]1SC(C)(C)[C@@H]2C(=O)O
Interps: R

Next compound, please.
Form field Interps, entry "CO[C@H]1/C=C/O[C@@]2(C)Oc3c(C)c(O)c4c(O)c(c(/C=N/N5CCN(C)CC5)c(O)c4c3C2=O)NC(=O)/C(C)=C\C=C\[C@H](C)[C@H](O)[C@@H](C)[C@@H](O)[C@@H](C)[C@H](OC(C)=O)[C@@H]1C" : S
